Reference for the values: patent US20110130397A1

Reported melting point by item:

CCOc1ccc2nc(N3C(=O)C(O)=C(C(=O)c4ccc(C)o4)C3c3ccccc3F)sc2c1 (stereo not shown) [Compound 183]: 251 to 252 °C
CCOc1ccc2nc(N3C(=O)C(O)=C(C(=O)c4ccc(C)o4)C3c3ccc(O)c(C(=O)O)c3)sc2c1 (stereo not shown) [Compound 254]: 251 to 252 °C
CCc1ccc2nc(N3C(=O)C(O)=C(C(=O)c4ccc(C)o4)C3c3ccccc3)sc2c1 (stereo not shown) [Compound 130]: 204 to 206 °C
Cc1ccc(C(=O)C2=C(O)C(=O)N(c3nc4ccc(F)cc4s3)C2c2cccc(F)c2F)o1 (stereo not shown) [Compound 624]: 239 to 240 °C
Cc1ccc(C(=O)C2=C(O)C(=O)N(C3CCCCC3)C2c2ccccc2F)o1 (stereo not shown) [Compound 432]: 195 to 196 °C

Lab note: measured melting point of Cc1ccc(C(=O)C2=C(O)C(=O)N(c3nc4c(Cl)cccc4s3)C2c2ccc3ccccc3c2)o1 (stereo not shown) [Compound 601] was 261 to 262 °C

The measured melting point associated with CCOc1ccc2nc(N3C(=O)C(O)=C(C(=O)c4ccc(C)o4)C3c3cccc(C(=O)OC)c3)sc2c1 (stereo not shown) [Compound 255] reads 228 to 229 °C

* * *

A collection of molecules and their measured CC50
# Assay Name: Cytotoxicity (CellTiter 96 Aqueous Non-Radioactive Cell Proliferation Assay)
# Type: cell-based
# Conditions: human, Huh7 cells
Express it in µM; write the number only.

CC(=O)c1sc(N2C(=O)C(O)=C(C(=O)c3cc4ccccc4o3)C2c2ccccc2)nc1C (stereo not shown) [Compound 54]: 78.5

Here's the next entry for you.
Measured CC50, CCc1ccc2nc(N3C(=O)C(O)=C(C(=O)c4ccccc4)C3c3ccco3)sc2c1 (stereo not shown) [Compound 119] : 10.8

* * *

# reported melting point; entries follow

Use these answered entries as a reference point.
COCCOc1ccc(CCC(=O)C2=C(O)C(=O)N(c3nc4c(Cl)cccc4s3)C2c2ccc(F)cc2)cc1 (stereo not drawn) [Compound 578]: 182 to 183 °C
CCN(CC)c1ccc(C2C(C(=O)c3ccc(C)o3)=C(O)C(=O)N2c2nc3ccc(Cl)cc3s2)cc1 (stereo not drawn) [Compound 614]: 207 to 210 °C
CC(=O)c1sc(N2C(=O)C(O)=C(C(=O)c3ccc(C)o3)C2c2ccccc2F)nc1C (stereo not drawn) [Compound 159]: 244 to 245 °C
COc1ccc2nc(N3C(=O)C(O)=C(C(=O)c4ccc(C)o4)C3c3cccnc3)sc2c1 (stereo not drawn) [Compound 158]: 291 to 292 °C
O=C(COc1ccccc1)C1=C(O)C(=O)N(c2nc3ccc(Cl)cc3s2)C1c1ccccc1F (stereo not drawn) [Compound 446]: 218 to 219 °C
CC(=O)C1=C(O)C(=O)N(c2nc3ccc(Cl)cc3s2)C1c1ccccc1F (stereo not drawn) [Compound 429]: 255 to 256 °C
CCOc1ccc2nc(N3C(=O)C(O)=C(C(=O)c4ccc(C)o4)C3c3cccc([N+](=O)[O-])c3)sc2c1 (stereo not drawn) [Compound 184]: 256 to 257 °C
CCOc1ccc2nc(N3C(=O)C(O)=C(C(=O)c4ccc(C)o4)C3C3CCCCC3)sc2c1 (stereo not drawn) [Compound 185]: 166 to 167 °C
Cc1ccc(C(=O)C2=C(O)C(=O)N(c3nc4c(O)ncnc4[nH]3)C2c2ccccc2F)o1 (stereo not drawn) [Compound 162]: > 350 °C
Cc1ccc(C(=O)C2=C(O)C(=O)N(CCCNCCCN)C2c2ccc(F)cc2)o1 (stereo not drawn) [Compound 491]: 126 to 128 °C

According to the records, this compound Cc1ccc(C(=O)C2=C(O)C(=O)N(c3nc4ccc(Cl)cc4s3)C2c2ccc(C)o2)o1 (stereo not drawn) [Compound 608] displays melting point of 235 to 236 °C

Reported melting point for Cc1ccc(C(=O)C2=C(O)C(=O)N(c3ncnc4[nH]cnc34)C2c2ccccc2F)o1 (stereo not drawn) [Compound 219] was 170 to 173 °C

Form: compound = COc1ccccc1CC(=O)C1=C(O)C(=O)N(c2nc3c(Cl)cccc3s2)C1c1ccc(F)cc1 (stereo not drawn) [Compound 486] ; melting point = 243 to 245 °C

Measured melting point, O=C(O)CCC(=O)C1=C(O)C(=O)N(c2nc3ccc(Cl)cc3s2)C1c1ccccc1F (stereo not drawn) [Compound 568] : 258 to 260 °C

Data point: Cc1ccc(C(=O)C2=C(O)C(=O)N(c3nc4ccc(S(C)(=O)=O)cc4s3)C2C2CCOC2)o1 (stereo not drawn) [Compound 180] ; melting point = 199 to 200 °C

Per the record, O=C(COc1ccccc1)C1=C(O)C(=O)N(c2nc3c(Cl)cccc3s2)C1c1ccccc1F (stereo not drawn) [Compound 449] has melting point of 131 to 133 °C

melting point reported for this compound O=C(C1=C(O)C(=O)N(c2nncs2)C1c1ccc(OCc2ccccc2)cc1)c1cc2ccccc2o1 (stereo not drawn) [Compound 52] : 150 to 154 °C

Data point: Cc1ccc(C(=O)C2=C(O)C(=O)N(C(CO)CO)C2c2ccccc2F)o1 (stereo not drawn) [Compound 434] ; melting point = 74 to 75 °C

Recorded result, CCOc1ccc2nc(N3C(=O)C(O)=C(C(=O)c4ccc(C)o4)C3c3ccc(-c4cccc([N+](=O)[O-])c4)o3)sc2c1 (stereo not drawn) [Compound 256] , melting point: 187 to 188 °C

response.value for CCOc1ccc2nc(N3C(=O)C(O)=C(C(=O)c4ccc(C)o4)C3c3cccc(OCc4ccccc4)c3)sc2c1 (stereo not drawn) [Compound 186] (field: melting point) = 214 to 215 °C

# compound Cc1ccc(C(=O)C2=C(O)C(=O)N(c3ccncn3)C2c2ccccc2F)o1 (stereo not drawn) [Compound 189] ; its melting point = 235 to 236 °C

Notebook: Cc1ccc(C(=O)C2=C(O)C(=O)N(CCCN(CCCNC(=O)OC(C)(C)C)C(=O)OC(C)(C)C)C2c2ccc(F)cc2)o1 (stereo not drawn) [Compound 490] , melting point read as 146 to 148 °C

Record Cc1ccc(C(=O)C2=C(O)C(=O)N(Cc3ccco3)C2c2ccccc2F)o1 (stereo not drawn) [Compound 502] . Reported melting point: 177 to 178 °C

# melting point of COc1ccccc1CC(=O)C1=C(O)C(=O)N(c2nc3ccc(Cl)cc3s2)C1c1ccc(Cl)cc1 (stereo not drawn) [Compound 487] = 247 to 248 °C

* * *

Property: melting point; scope: individual molecules

The following molecules have reported results that may help.
COc1ccc2nc(N3C(=O)C(O)=C(C(=O)c4ccc(C)o4)C3c3ccco3)sc2c1 (stereo not drawn): 240 to 242 °C
Cc1ccc(C(=O)C2=C(O)C(=O)N(c3ncnc4[nH]ncc34)C2c2cccc([N+](=O)[O-])c2)o1 (stereo not drawn): 222 to 223 °C
Cc1ccc(C(=O)C2=C(O)C(=O)N(c3nc4ccc(F)cc4s3)C2c2ccc3c(c2)OCCO3)o1 (stereo not drawn): 236 to 237 °C

COc1ccccc1CC(=O)C1=C(O)C(=O)N(c2nc3ccc(F)cc3s2)C1c1ccccc1F (stereo not drawn) yielded melting point of 207 to 208 °C

Lab note: measured melting point of Cc1ccc(C(=O)C2=C(O)C(=O)N(c3nc4ccc(F)cc4s3)C2c2ccc(OCCO)cc2)o1 (stereo not drawn) was 134 to 135 °C

For this molecule ( Cc1ccc(C(=O)C2=C(O)C(=O)N(c3ncnc4c3ncn4C3OC(CO)C(O)C3O)C2c2ccccc2F)o1 (stereo not drawn) ), measured melting point is 106 to 109 °C

Looking up O=C(C1=C(O)C(=O)N(c2nc3c(Cl)cccc3s2)C1c1ccc(F)cc1)C1CC1 (stereo not drawn) , I see its melting point listed as 218 to 219 °C

Entry CC(=O)c1sc(N2C(=O)C(O)=C(C(=O)c3cc4ccccc4o3)C2c2ccccc2)nc1C (stereo not drawn) ; melting point = 205 to 208 °C

What the record says about COCCOc1ccc(CCC(=O)C2=C(O)C(=O)N(c3nc4ccc(Cl)cc4s3)C2c2ccc(F)cc2)cc1 (stereo not drawn) : melting point is 226 to 227 °C

// field: melting point; key: O=C(C1=C(O)C(=O)N(c2nc3ccc(F)cc3s2)C1c1ccc(F)cc1)C1CC1 (stereo not drawn) ; value = 221 to 223 °C

// sample COc1ccccc1CC(=O)C1=C(O)C(=O)N(c2nc3ccc(F)cc3s2)C1c1ccc(F)cc1 (stereo not drawn) , its melting point was 223 to 224 °C

* * *

The entries below are paired with their reported melting point.

// known answers, use as guide
O=C(C1=C(O)C(=O)N(c2nc3ccc(Cl)cc3s2)C1c1ccc(Cl)cc1)C1CC1 (stereo not shown): 245 to 246 °C
Cc1ccc(C(=O)C2=C(O)C(=O)N(c3nc4ccc(F)cc4s3)C2c2ccc(C#N)cc2)o1 (stereo not shown): 255 to 256 °C
Cc1ccc(C(=O)C2=C(O)C(=O)N(Cc3nn[nH]n3)C2)o1: 233 to 234 °C

We now examine a further molecule.
The molecule listed as O=C(COc1ccccc1)C1=C(O)C(=O)N(c2nc3ccc(Cl)cc3s2)C1c1ccc(F)cc1 (stereo not shown) shows melting point equal to 203 to 204 °C
